The measured values listed here are drawn from patent US20130101595A1.

systemUnderTest: recombinant human IL-18 (rhIL-18) (human, UniProt Q14116 37-193, biotinylated (D-biotinyl-epsilon-aminocaproic acid NHS ester, 2:1 molar ratio of biotin to rhIL-18) in the BIAcore assay; not said to be biotinylated in the KG-1 assay)
protocolSummary: cell-based or functional assay
Readings of IC50 Value, KG-1 cell-based IL-18 neutralization assay (hIFN-gamma) for the listed binders
Kindly provide the numeric value in nM only, without the unit symbol.

[
  {
    "binder": "2E1 (parent) ScFv (scFv, V domains shown, Tested as single-chain Fv; also called single chain Fv version of antibody 2E1; 2E1 single chain antibody) VH: QVQLVQSGAEVKKPGASMKVSCKTSGYTFTGYYIHWVRQAHGQGFEWIGRLNPTTGDANFAEKFQGRVALTRDTSISTAYLQLDSLKSDDTAVYYCAGKEGAWGQGTLVTVSS VL: SSELTQDPAVSVALGQTVRITCQGDSLRHFYPNWYQQKPGQAPVLVIYGKNNRPSGIPDRFSGSGSGNTGSLTITGAQAEDEADYYCGSRDSSGIHVVFGGGTKVTVLG",
    "unitOfMeasure": "nM",
    "measured": 33
  },
  {
    "binder": "2E1 mutant L34S + H53R + H58Q (scFv, V domains shown) VH: QVQLVQSGAEVKKPGASMKVSCKTSGYTFTGYYIHWVRQAHGQGFEWIGRLNPRTGDAQFAEKFQGRVALTRDTSISTAYLQLDSLKSDDTAVYYCAGKEGAWGQGTLVTVSS VL: SSELTQDPAVSVALGQTVRITCQGDSLRHFYPSWYQQKPGQAPVLVIYGKNNRPSGIPDRFSGSGSGNTGSLTITGAQAEDEADYYCGSRDSSGIHVVFGGGTKVTVLG",
    "unitOfMeasure": "nM",
    "measured": 2.8
  },
  {
    "binder": "2E1 mutant L34S (scFv, V domains shown) VH: QVQLVQSGAEVKKPGASMKVSCKTSGYTFTGYYIHWVRQAHGQGFEWIGRLNPTTGDANFAEKFQGRVALTRDTSISTAYLQLDSLKSDDTAVYYCAGKEGAWGQGTLVTVSS VL: SSELTQDPAVSVALGQTVRITCQGDSLRHFYPSWYQQKPGQAPVLVIYGKNNRPSGIPDRFSGSGSGNTGSLTITGAQAEDEADYYCGSRDSSGIHVVFGGGTKVTVLG",
    "unitOfMeasure": "nM",
    "measured": 15
  },
  {
    "binder": "2E1 (parent) IgG (antibody, V domains shown) VH: QVQLVQSGAEVKKPGASMKVSCKTSGYTFTGYYIHWVRQAHGQGFEWIGRLNPTTGDANFAEKFQGRVALTRDTSISTAYLQLDSLKSDDTAVYYCAGKEGAWGQGTLVTVSS VL: SSELTQDPAVSVALGQTVRITCQGDSLRHFYPNWYQQKPGQAPVLVIYGKNNRPSGIPDRFSGSGSGNTGSLTITGAQAEDEADYYCGSRDSSGIHVVFGGGTKVTVLG",
    "unitOfMeasure": "nM",
    "measured": 0.9
  },
  {
    "binder": "2E1 mutant H53R (scFv, V domains shown) VH: QVQLVQSGAEVKKPGASMKVSCKTSGYTFTGYYIHWVRQAHGQGFEWIGRLNPRTGDANFAEKFQGRVALTRDTSISTAYLQLDSLKSDDTAVYYCAGKEGAWGQGTLVTVSS VL: SSELTQDPAVSVALGQTVRITCQGDSLRHFYPNWYQQKPGQAPVLVIYGKNNRPSGIPDRFSGSGSGNTGSLTITGAQAEDEADYYCGSRDSSGIHVVFGGGTKVTVLG",
    "unitOfMeasure": "nM",
    "measured": 25
  }
]

Enquiry: Please look at this binder and report its IC50 Value, KG-1 cell-based IL-18 neutralization assay (hIFN-gamma): 2E1 mutant L34S + H53R (2E1RS) (scFv, V domains shown) VH: QVQLVQSGAEVKKPGASMKVSCKTSGYTFTGYYIHWVRQAHGQGFEWIGRLNPRTGDANFAEKFQGRVALTRDTSISTAYLQLDSLKSDDTAVYYCAGKEGAWGQGTLVTVSS VL: SSELTQDPAVSVALGQTVRITCQGDSLRHFYPSWYQQKPGQAPVLVIYGKNNRPSGIPDRFSGSGSGNTGSLTITGAQAEDEADYYCGSRDSSGIHVVFGGGTKVTVLG
Return: 3

Enquiry: Dear colleague, please send me the reported IC50 Value, KG-1 cell-based IL-18 neutralization assay (hIFN-gamma) for 2E1 mutant L34S + H53Y (scFv, V domains shown) VH: QVQLVQSGAEVKKPGASMKVSCKTSGYTFTGYYIHWVRQAHGQGFEWIGRLNPYTGDANFAEKFQGRVALTRDTSISTAYLQLDSLKSDDTAVYYCAGKEGAWGQGTLVTVSS VL: SSELTQDPAVSVALGQTVRITCQGDSLRHFYPSWYQQKPGQAPVLVIYGKNNRPSGIPDRFSGSGSGNTGSLTITGAQAEDEADYYCGSRDSSGIHVVFGGGTKVTVLG when you can.
Return: 6.7
